Hello, the source for this data is patent US20240279318A1, in case you need it.

- TEST SYSTEM: T1, AFP158/HLA-A*02:01 complex (human)
- T1 construct: biotinylated on the BSP by BirA for ELISA and panning; also called biotinylated AFP158/HLA-A*02:01 complex; Bio-AFP158
- METHOD DESCRIPTION: SPR; vs AS170036 VL1VH1;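 also: crude scFv captured on sensor chip, peptide–HLA complex flowed over at several concentrations, KD estimated from association and dissociation kinetic rates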
ENDPOINT NAME: Affinity increase (fold)

1) AS170036 VL1VH1 HF101D (scFv) scFv: QSALTQPRSVSGSPGQSVTISCAGTSSDVGSENYVSWYQQHPGKAPKLMIYQVNKRASGVPDRFSGSKSGNTASLTISGLQAEDEADYYCASYRSSDHNIVFGGGTKLTVLGGGGSGGGGSGGGGSEVQLVESGGGLVQPGGSLRLSCAASGFTFSSYAMSWVRQAPGKGLEWVSTINSGTGSPYYADSVKGRFTISRDNSKNTLYLQMNSLRAEDTAVYYCAKNFDDGSWFLGPPAMDYWGQGTLVTVSSHHHHHH :: 0.2
